The values you see were collected from paper PMC9482650.

Target: DLG1_3, Q12959
Sequence (Q12959 457-571): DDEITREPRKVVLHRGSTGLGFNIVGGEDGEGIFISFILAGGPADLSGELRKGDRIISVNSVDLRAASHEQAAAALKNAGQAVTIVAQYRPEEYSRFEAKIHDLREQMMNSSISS
Experiment: holdup assay
Set-up: key: below the threshold = too weak to quantify, mostly under pKd 3.1 to 4
Settings: plain residues with an end cap or a label only (N-terminal biotin on a linker: ttds)
PARAMETER_MEASURED: pKd

[
  {
    "BINDER": "FHPLGADSQV [SLC2A1, P11166]",
    "RESULT": "below the threshold"
  },
  {
    "BINDER": "RPLPRKVSQL [DOCK4, Q8N1I0]",
    "RESULT": 3.84
  },
  {
    "BINDER": "PRVKPQRSKV [PPP1R13L, Q8WUF5]",
    "RESULT": "below the threshold"
  },
  {
    "BINDER": "NDPAWDETNL [ARHGEF7, Q14155;Q14155-1]",
    "RESULT": "below the threshold"
  }
]
